List of IC50 values.
subject-of-test: UniProt:P08684
Sequence (P08684 whole entry): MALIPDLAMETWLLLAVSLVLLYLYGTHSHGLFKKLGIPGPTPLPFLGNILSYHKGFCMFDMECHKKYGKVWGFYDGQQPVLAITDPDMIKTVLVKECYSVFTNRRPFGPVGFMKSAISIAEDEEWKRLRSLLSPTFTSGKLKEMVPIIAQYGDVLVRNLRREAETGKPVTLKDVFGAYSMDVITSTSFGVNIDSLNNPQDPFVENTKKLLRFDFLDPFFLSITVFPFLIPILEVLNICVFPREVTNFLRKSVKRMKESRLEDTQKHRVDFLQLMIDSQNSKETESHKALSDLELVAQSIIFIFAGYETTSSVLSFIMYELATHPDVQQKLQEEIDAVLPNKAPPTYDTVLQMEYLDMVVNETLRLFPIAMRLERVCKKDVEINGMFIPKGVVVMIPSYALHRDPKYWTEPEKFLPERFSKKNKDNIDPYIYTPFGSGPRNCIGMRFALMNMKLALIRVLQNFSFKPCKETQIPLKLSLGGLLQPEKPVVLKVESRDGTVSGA
Lab book: enter the figure in µM, no units written.

Cn1cc(Cc2cn(CC(=O)N(CC(=O)O)Cc3ccc(-c4ccc(C(F)(F)F)cc4)cc3)c(SCc3ccc(F)cc3)nc2=O)cn1 31

Which IC50 value is on record for Cn1cc(Cc2cn(CC(=O)N(CCO)Cc3ccc(-c4ccc(Cl)cc4)cc3)c(SCc3ccc(F)cc3)nc2=O)cn1 ?
19

Moving on to CN(C)CCCN(Cc1ccc(-c2ccc(Cl)cc2)cc1)C(=O)Cn1cc(Cc2cnn(C)c2)c(=O)nc1SCc1ccc(F)cc1
17

Moving on to Cn1cc(Cc2cn(CC(=O)N(CCN3CCCCC3)Cc3ccc(-c4ccc(C(F)(F)F)cc4)cc3)c(SCc3ccc(F)cc3)nc2=O)cn1
10

Moving on to CCN(CC)CCN(Cc1ccc(-c2ccc(C(F)(F)F)cc2)cc1)C(=O)Cn1cc(Cc2cnn(C)c2)c(=O)nc1SCc1ccc(F)cc1
10

----------
List of Papp values.
experiment-summary: Permeability of compound was evaluated in an artificial membrane permeability assay
Format: ADME, cell membranes
assay-context: PAMPA; read-out: Permeability (converted)
Lab book: enter the figure in ×10⁻⁶ cm/s, no units written.

Answered cases to consult:
CCN(CC)CCN(Cc1ccc(-c2ccc(C(F)(F)F)cc2)cc1)C(=O)Cn1cc(Cc2cnn(C)c2)c(=O)nc1SCc1ccc(F)cc1 4.72
Cn1cc(Cc2cn(CC(=O)N(CCN)Cc3ccc(-c4ccc(Cl)cc4)cc3)c(SCc3ccc(F)cc3)nc2=O)cn1 0.556
CN(C)CCCN(Cc1ccc(-c2ccc(Cl)cc2)cc1)C(=O)Cn1cc(Cc2cnn(C)c2)c(=O)nc1SCc1ccc(F)cc1 0.278

Which Papp value is on record for Cn1cc(Cc2cn(CC(=O)N(CCN3CCCCC3)Cc3ccc(-c4ccc(C(F)(F)F)cc4)cc3)c(SCc3ccc(F)cc3)nc2=O)cn1 ?
18.9

----------
experiment-summary: Oral bioavailability in dog
Format: ADME, organism-based, Canis lupus familiaris
assay-context: in vivo, read-out: Bioavailabiility
assay-endpoint: bioavailability (%)
Lab book: enter the figure in %, no units written.

Which bioavailability value is on record for CCN(CC)CCN(Cc1ccc(-c2ccc(C(F)(F)F)cc2)cc1)C(=O)Cn1cc(Cc2cnn(C)c2)c(=O)nc1SCc1ccc(F)cc1 ?
24

----------
Species on record: Homo sapiens
experiment-summary: Concentration required to inhibit the production of lyso-PtdCho by the compound during the copper catalyzed oxidation of human LDL
Format: functional
assay-endpoint: IC50 (nM)
Lab book: enter the figure in nM, no units written.

Which IC50 value is on record for CCN(CC)CCN(Cc1ccc(-c2ccc(C(F)(F)F)cc2)cc1)C(=O)Cn1cc(Cc2cnn(C)c2)c(=O)nc1SCc1ccc(F)cc1 ?
23

----------
experiment-summary: Permeability of compound was evaluated in an artificial membrane permeability assay
Assay type: ADME, cell membranes
assay-context: PAMPA; read-out: Permeability (converted)
List of Papp values.
Lab book: enter the figure in ×10⁻⁶ cm/s, no units written.

CCN(CC)CCN(Cc1ccc(-c2ccc(Cl)cc2)cc1)C(=O)Cn1cc(Cc2cnn(C)c2)c(=O)nc1SCc1ccc(F)cc1 8.06
Cn1cc(Cc2cn(CC(=O)N(CCO)Cc3ccc(-c4ccc(Cl)cc4)cc3)c(SCc3ccc(F)cc3)nc2=O)cn1 0.556
Cn1cc(Cc2cn(CC(=O)N(CCN3CCCC3)Cc3ccc(-c4ccc(Cl)cc4)cc3)c(SCc3ccc(F)cc3)nc2=O)cn1 1.11

The record that follows has no Papp shown yet.
Which Papp value is on record for CN(C)CCN(Cc1ccc(-c2ccc(Cl)cc2)cc1)C(=O)Cn1cc(Cc2cnn(C)c2)c(=O)nc1SCc1ccc(F)cc1 ?
0.556

----------
Target protein (sequence): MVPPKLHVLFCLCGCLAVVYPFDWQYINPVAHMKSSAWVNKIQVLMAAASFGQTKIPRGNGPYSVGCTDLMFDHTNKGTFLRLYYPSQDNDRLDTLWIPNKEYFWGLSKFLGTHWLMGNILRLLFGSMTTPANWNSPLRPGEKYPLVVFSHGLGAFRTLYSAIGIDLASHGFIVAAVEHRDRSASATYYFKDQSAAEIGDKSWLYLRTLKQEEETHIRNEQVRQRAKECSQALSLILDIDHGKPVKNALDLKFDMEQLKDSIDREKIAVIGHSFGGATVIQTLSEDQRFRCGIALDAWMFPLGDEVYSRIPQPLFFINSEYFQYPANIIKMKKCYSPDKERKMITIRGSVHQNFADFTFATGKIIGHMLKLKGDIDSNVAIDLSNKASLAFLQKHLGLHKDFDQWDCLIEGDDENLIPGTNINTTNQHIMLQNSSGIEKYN
assay-endpoint: IC50 (nM)
Lab book: enter the figure in nM, no units written.

Which IC50 value is on record for COc1ncc(Cc2cn(CC(=O)N(CCN(C)C)Cc3ccc(-c4ccc(Cl)cc4)cc3)c(SCc3ccc(F)cc3)nc2=O)cn1 ?
0.2

----------
List of pKa values.
experiment-summary: Acid dissociation constant was determined for the compound
Type: ADME
Kindly provide the number alone.

CCN(CC)CCCN(Cc1ccc(-c2ccc(Cl)cc2)cc1)C(=O)Cn1cc(Cc2cnn(C)c2)c(=O)nc1SCc1ccc(F)cc1 9

The record that follows has no pKa shown yet.
Which pKa value is on record for CCN(CC)CCN(Cc1ccc(-c2ccc(Cl)cc2)cc1)C(=O)Cn1cc(Cc2cnn(C)c2)c(=O)nc1SCc1ccc(F)cc1 ?
8.3

----------
List of Papp values.
experiment-summary: Permeability of compound was evaluated in an artificial membrane permeability assay
Type: ADME, cell membranes
assay-context: PAMPA; read-out: Permeability (converted)

CN1CCN(CCCN(Cc2ccc(-c3ccc(Cl)cc3)cc2)C(=O)Cn2cc(Cc3cnn(C)c3)c(=O)nc2SCc2ccc(F)cc2)CC1 < 0.278 ×10⁻⁶ cm/s
Cn1cc(Cc2cn(CC(=O)N(CC(=O)O)Cc3ccc(-c4ccc(C(F)(F)F)cc4)cc3)c(SCc3ccc(F)cc3)nc2=O)cn1 < 0.278 ×10⁻⁶ cm/s

The record that follows has no Papp shown yet.
Which Papp value is on record for CN(C)CCN(Cc1ccc(-c2ccc(C(F)(F)F)cc2)cc1)C(=O)Cn1cc(Cc2cnn(C)c2)c(=O)nc1SCc1ccc(F)cc1 ?
< 0.278 ×10⁻⁶ cm/s

Source listed as ChEMBL document CHEMBL1135959.
